The origin of these recorded values is patent US12559750B2.

- System: AMPA-R
- assayNotes: [3H]AMPA radioligand binding assay on rat brain synaptic membranes
- experimentalParameters: Experiment #3, 100 uM
Decision: % Inhibition @ 100 uM >= 10% yields Satisfied, all other cases yield Not satisfied.

Use these answered entries as a reference point.
# macromoleculeSequence, assignedClass
rows = [
    ("TEGSTEAASGSCMAFCFUFUMUSCS (TGTAAGCACUUUC; anti-miR; 2'-MOE at 1, 3, cEt at 2, 5, 6, 12, 13, 2'-O-methyl at 7, 11, 2'-fluoro at 8, 9, 10, other sugars and backbone not given here) [RG-NG-1020]", "Not satisfied"),
    ("ASCSTGSUSAASGSCMAFCFUFUMUSCS (ACTGUAAGCACUUUC; cEt at 1, 2, 4, 5, 7, 8, 14, 15, 2'-O-methyl at 9, 13, 2'-fluoro at 10, 11, 12, other sugars and backbone not given here) [RG-NG-1019]", "Satisfied"),
    ("ASCSAMAFUFGFCMASCS [RG5124, reference compound]", "Satisfied"),
]

Task: Form field: % Inhibition @ 100 uM at least 10%? Entry: AECETEGSTEAASGSCMAFCFUFUMUSCS (ACTGTAAGCACUUUC; S-cEt, 2'-MOE, 2'-F, 2'-OMe modifications; modified_base 3 OTHER; thymine; modified_base 5 OTHER; misc_feature 1..15 Synthetic: RG-NG-1018; modified_base 1..3 OTHER; 2'-O-methoxyethyl nucleoside; modified_base 4 OTHER; S-constrained ethyl nucleoside; modified_base 7..8 OTHER; modified_base 9 OTHER; 2'-O-methyl nucleoside; modified_base 10..12 OTHE)
Output: Satisfied

Task: Form field: % Inhibition @ 100 uM at least 10%? Entry: TEAASGSCMAFCFUFUMUSCS (TAAGCACUUUC; 2'-MOE at 1, cEt at 3, 4, 10, 11, 2'-O-methyl at 5, 9, 2'-fluoro at 6, 7, 8, other sugars and backbone not given here) [RG-NG-1021]
Output: Not satisfied

Task: Form field: % Inhibition @ 100 uM at least 10%? Entry: ASGSCMAFCFUFUMUSGE [RG-NG-1025]
Output: Satisfied

###

Measured % Inhibition @ 1 uM, listed per entry.
- Test system: AMPA-R
- assayNotes: [3H]AMPA radioligand binding assay on rat brain synaptic membranes;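 further: competition binding in which test compounds at rising concentrations displace [3H]AMPA from AMPA-R on rat brain synaptic membranes, with reduced bound radioligand as read-out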
- experimentalParameters: Experiment #3, 1 uM
Answer with a number only, understood to be in %.

# macromoleculeSequence, % Inhibition @ 1 uM (%)
rows = [
    ("AFGSCMAFCFUFUMUSGE [RG-NG-1023]", 25.6),
    ("ASGSCMAFCFUFUMUSGS [RGLS4326, reference compound]", 55.8),
]

Task: Provide the documented % Inhibition @ 1 uM with AMPA-R as the system for ASCSAMAFUFGFCMASCS [RG5124, reference compound]
Output: 9.3
